Cited source for all entries: PubChem BioAssay AID2060890

test system: LG0703-F948-PDC complex spheroid viability; test: Anticancer human tumor LG0703-F948-PDC patient-derived lung adenocarcinoma cell line growth inhibition [RAS]; conditions: curve of first compound; second compound 3.16 µM;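 further: spheroids exposed to agents for 7 days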
Measurement type: IC50 (µM)
API: value field is a number in µM; no unit string.

Compound	Reported value
CC1(O)CCCC1n1c(=O)c(C(F)F)cc2cnc(NC3CCN(S(C)(=O)=O)CC3)nc21 (stereo not given) + C#Cc1c(F)ccc2cc(O)cc(-c3ncc4c(N5CC6CCC(C5)N6)nc(OCC56CCCN5CC(F)C6)nc4c3F)c12	4.26

q: GET /values?readout=IC50&item= CC(Nc1ccc2c(c1)OCCn1cc(N3C(=O)OCC3C(F)F)nc1-2)C(N)=O (stereo not given) + C#Cc1c(F)ccc2cc(O)cc(-c3ncc4c(N5CC6CCC(C5)N6)nc(OCC56CCCN5CC(F)C6)nc4c3F)c12
a: 0.062

q: GET /values?readout=IC50&item= Nc1ccn(C2OC(CO)C(O)C2(F)F)c(=O)n1 (stereo not given) + C#Cc1c(F)ccc2cc(O)cc(-c3ncc4c(N5CC6CCC(C5)N6)nc(OCC56CCCN5CC(F)C6)nc4c3F)c12
a: 0.00385
